Where do these numbers come from? They come from patent US12280088B2.

protocol.notes: physchem
Format: physicochemical
assay.context: pH 3, aqueous buffer
Peptide text beside a SMILES is read from it.
measured.attribute: solubility thermodynamic at 24 h (µg/mL)
Answer with a number only, understood to be in µg/mL.

The reported solubility thermodynamic at 24 h of the compound CC(C)[C@H](NC(=O)[C@@H](NC(=O)[C@H](Cc1ccccc1)NC(=O)[C@@H](NC(=O)[C@@H](NC(=O)[C@@H](N)Cc1ccccc1)[C@@H](C)O)[C@@H](C)O)[C@@H](C)O)C(=O)N[C@H](C(=O)O)[C@@H](C)O [CSP7 (ammonium counterion), FTTFTVT] (H-FTTFTVT-OH; N-terminus and C-terminus assumed) was 170

###

protocol.notes: Appearance of solutions in solubility study of variants
Format: physicochemical
assay.context: pH 4.5, 25 mg/ml
Square brackets hold non-standard residues; d marks the D form. Peptide text beside a SMILES is read from it. Orn = NCCC[C@H](N)C(=O)O
measured.attribute: Appearance of solutions

// worked examples, Appearance of solutions included
CC(C)[C@H](NC(=O)[C@@H](NC(=O)[C@H](Cc1ccccc1)NC(=O)[C@@H](NC(=O)[C@@H](NC(=O)[C@H](Cc1ccccc1)NC(=O)[C@H](CO)NC(=O)[C@H](C)NC(=O)[C@@H](N)CCCN)[C@@H](C)O)[C@@H](C)O)[C@@H](C)O)C(=O)N[C@H](C(=O)N[C@@H](CCCN)C(=O)N[C@@H](CO)C(N)=O)[C@@H](C)O [SEQ ID NO.10, OASFTTFTVTOS-NH2] (H-[Orn]ASFTTFTVT[Orn]S-NH2) = Clear
CC(C)[C@H](NC(=O)[C@@H](NC(=O)[C@H](Cc1ccccc1)NC(=O)[C@@H](NC(=O)[C@@H](NC(=O)[C@H](Cc1ccccc1)NC(=O)[C@H](CO)NC(=O)[C@H](C)NC(=O)[C@@H](N)CCCCN)[C@@H](C)O)[C@@H](C)O)[C@@H](C)O)C(=O)N[C@H](C(=O)N[C@@H](CCCCN)C(=O)NCC(=O)N[C@@H](CO)C(=O)O)[C@@H](C)O [SEQ ID NO.4] (H-KASFTTFTVTKGS-OH) = Clear
CC(C)[C@H](NC(=O)[C@@H](NC(=O)[C@H](Cc1ccccc1)NC(=O)[C@@H](NC(=O)[C@@H](NC(=O)[C@H](Cc1ccccc1)NC(=O)[C@H](CO)NC(=O)[C@H](C)NC(=O)[C@H](CCCCN)NC(=O)CNC(=O)[C@H](CCC(=O)O)NC(=O)[C@@H](C)NC(=O)[C@@H](C)N)[C@@H](C)O)[C@@H](C)O)[C@@H](C)O)C(=O)N[C@H](C(=O)N[C@@H](CCCCN)C(=O)NCC(=O)N[C@@H](CO)C(=O)N[C@H](C)C(=O)N[C@H](C)C(N)=O)[C@@H](C)O [SEQ ID NO.7] (H-[dA][dA]EGKASFTTFTVTKGS[dA][dA]-NH2) = Clear
CC(=O)N[C@H](C)C(=O)N[C@H](C)C(=O)N[C@@H](CCC(=O)O)C(=O)NCC(=O)N[C@@H](CCCCN)C(=O)N[C@@H](C)C(=O)N[C@@H](CO)C(=O)N[C@@H](Cc1ccccc1)C(=O)N[C@H](C(=O)N[C@H](C(=O)N[C@@H](Cc1ccccc1)C(=O)N[C@H](C(=O)N[C@H](C(=O)N[C@H](C(=O)N[C@@H](CCCCN)C(=O)NCC(=O)N[C@@H](CO)C(=O)N[C@H](C)C(=O)N[C@H](C)C(N)=O)[C@@H](C)O)C(C)C)[C@@H](C)O)[C@@H](C)O)[C@@H](C)O [SEQ ID NO.8] (Ac-[dA][dA]EGKASFTTFTVTKGS[dA][dA]-NH2) = Gel

// switching to the query compound
The reported Appearance of solutions of the compound CC(C)[C@H](N)C(=O)N[C@H](C(=O)N[C@@H](CCCCN)C(=O)N[C@@H](Cc1ccc(O)cc1)C(=O)N[C@@H](Cc1c[nH]c2ccccc12)C(=O)N[C@@H](Cc1ccccc1)C(=O)N[C@@H](Cc1ccc(O)cc1)C(=O)N[C@@H](CCCNC(=N)N)C(N)=O)[C@@H](C)O [SEQ ID NO.22] (H-VTKYWFYR-NH2) was Clear

###

protocol.notes: pH-solubility of polypeptide variants
Assay type: physicochemical
assay.context: pH 7.5; b: high viscous solution, aliquot assayed; read-out: pH-solubility, Concentration
Square brackets hold non-standard residues; d marks the D form. Peptide text beside a SMILES is read from it.
measured.attribute: solubility at 3 min

The reported solubility at 3 min of the compound CC(C)[C@H](NC(=O)[C@@H](NC(=O)[C@H](Cc1ccccc1)NC(=O)[C@@H](NC(=O)[C@@H](NC(=O)[C@H](Cc1ccccc1)NC(=O)[C@H](CO)NC(=O)[C@H](C)NC(=O)[C@H](CCCCN)NC(=O)CNC(=O)[C@H](CCC(=O)O)NC(=O)[C@@H](C)NC(=O)[C@@H](C)N)[C@@H](C)O)[C@@H](C)O)[C@@H](C)O)C(=O)N[C@H](C(=O)N[C@@H](CCCCN)C(=O)NCC(=O)N[C@@H](CO)C(=O)N[C@H](C)C(=O)N[C@H](C)C(N)=O)[C@@H](C)O [SEQ ID NO.7] (H-[dA][dA]EGKASFTTFTVTKGS[dA][dA]-NH2) was ≥ 35.3 mg/mL

###

protocol.notes: physchem
Type: physicochemical
assay.context: pH 7, aqueous buffer
Peptide text beside a SMILES is read from it.
measured.attribute: solubility thermodynamic at 24 h (µg/mL)
Answer with a number only, understood to be in µg/mL.

The reported solubility thermodynamic at 24 h of the compound CC(C)[C@H](NC(=O)[C@@H](NC(=O)[C@H](Cc1ccccc1)NC(=O)[C@@H](NC(=O)[C@@H](NC(=O)[C@@H](N)Cc1ccccc1)[C@@H](C)O)[C@@H](C)O)[C@@H](C)O)C(=O)N[C@H](C(=O)O)[C@@H](C)O [CSP7 (ammonium counterion), FTTFTVT] (H-FTTFTVT-OH; N-terminus and C-terminus assumed) was 100

###

protocol.notes: physchem
Type: physicochemical
assay.context: pH 5, aqueous buffer
Peptide text beside a SMILES is read from it.
measured.attribute: solubility thermodynamic at 24 h (µg/mL)
Answer with a number only, understood to be in µg/mL.

The reported solubility thermodynamic at 24 h of the compound CC(C)[C@H](NC(=O)[C@@H](NC(=O)[C@H](Cc1ccccc1)NC(=O)[C@@H](NC(=O)[C@@H](NC(=O)[C@@H](N)Cc1ccccc1)[C@@H](C)O)[C@@H](C)O)[C@@H](C)O)C(=O)N[C@H](C(=O)O)[C@@H](C)O [CSP7 (ammonium counterion), FTTFTVT] (H-FTTFTVT-OH; N-terminus and C-terminus assumed) was 50

###

protocol.notes: pH-solubility of polypeptide variants
Assay type: physicochemical
assay.context: pH 8.5; a: precipitate, supernatant assayed; read-out: pH-solubility, Concentration
Square brackets hold non-standard residues; d marks the D form. Peptide text beside a SMILES is read from it. Orn = NCCC[C@H](N)C(=O)O
measured.attribute: solubility thermodynamic at 3 min (mg/mL)
Answer with a number only, understood to be in mg/mL.

CC(C)[C@H](N)C(=O)N[C@H](C(=O)N[C@@H](CCCCN)C(=O)N[C@@H](Cc1ccc(O)cc1)C(=O)N[C@@H](Cc1c[nH]c2ccccc12)C(=O)N[C@@H](Cc1ccccc1)C(=O)N[C@@H](Cc1ccc(O)cc1)C(=O)N[C@@H](CCCNC(=N)N)C(N)=O)[C@@H](C)O [SEQ ID NO.22] (H-VTKYWFYR-NH2) = 29.1
CC(C)[C@H](NC(=O)[C@@H](NC(=O)[C@H](Cc1ccccc1)NC(=O)[C@@H](NC(=O)[C@@H](NC(=O)[C@H](Cc1ccccc1)NC(=O)[C@H](CO)NC(=O)[C@H](C)NC(=O)[C@@H](N)CCCN)[C@@H](C)O)[C@@H](C)O)[C@@H](C)O)C(=O)N[C@H](C(=O)N[C@@H](CCCN)C(=O)N[C@@H](CO)C(N)=O)[C@@H](C)O [SEQ ID NO.10, OASFTTFTVTOS-NH2] (H-[Orn]ASFTTFTVT[Orn]S-NH2) = 14.6
CC(=O)N[C@H](C)C(=O)N[C@H](C)C(=O)N[C@@H](CCC(=O)O)C(=O)NCC(=O)N[C@@H](CCCCN)C(=O)N[C@@H](C)C(=O)N[C@@H](CO)C(=O)N[C@@H](Cc1ccccc1)C(=O)N[C@H](C(=O)N[C@H](C(=O)N[C@@H](Cc1ccccc1)C(=O)N[C@H](C(=O)N[C@H](C(=O)N[C@H](C(=O)N[C@@H](CCCCN)C(=O)NCC(=O)N[C@@H](CO)C(=O)N[C@H](C)C(=O)N[C@H](C)C(N)=O)[C@@H](C)O)C(C)C)[C@@H](C)O)[C@@H](C)O)[C@@H](C)O [SEQ ID NO.8] (Ac-[dA][dA]EGKASFTTFTVTKGS[dA][dA]-NH2) = 20.6
CC[C@H](C)[C@H](NC(=O)CNC(=O)[C@@H](N)CC(=O)O)C(=O)N[C@@H](Cc1c[nH]c2ccccc12)C(=O)N[C@@H](CCCCN)C(=O)N[C@@H](C)C(=O)N[C@@H](CO)C(=O)N[C@@H](Cc1ccccc1)C(N)=O [SEQ ID NO.21] (H-DGIWKASF-NH2) = 0.17

// switching to the query compound
The reported solubility thermodynamic at 3 min of the compound CC(C)[C@H](NC(=O)[C@@H](NC(=O)[C@H](Cc1ccccc1)NC(=O)[C@@H](NC(=O)[C@@H](NC(=O)[C@H](Cc1ccccc1)NC(=O)[C@H](CO)NC(=O)[C@H](C)NC(=O)[C@@H](N)CCCCN)[C@@H](C)O)[C@@H](C)O)[C@@H](C)O)C(=O)N[C@H](C(=O)N[C@@H](CCCCN)C(=O)NCC(=O)N[C@@H](CO)C(=O)O)[C@@H](C)O [SEQ ID NO.4] (H-KASFTTFTVTKGS-OH) was 10.8
